assay: gradient 5% acetonitrile 3 min, to 50% in 2 min, to 85% in 15 min, held 3 min, 100 µL/min; settings: column: Zorbax Extend-C18 2.1 x 50 mm; eluents: water / acetonitrile, 0.1% formic acid
Classification field: condition met = RP-LC retention time at or over 700 s; condition not met = RP-LC retention time under 700 s.

# bool: RP-LC retention time of `COc1nccc(N2CCC(CC(=O)NCc3ccc(OC)c(OC)c3)CC2)n1` >= 700 s
condition not met

Another compound: CC(C)CNC(=O)C1(CCO)CCN(Cc2ccccc2)C1 (stereo not given)
condition not met

Another compound: `O=C(CN1C(=O)NC2(CCCCC2)C1=O)Nc1ccc(Cl)cc1F`
condition met

Another compound: Cc1ccc(-c2ccc(N3CCCC(C(=O)NCc4ccc(Br)cc4)C3)nn2)cc1 (stereo not given)
condition met

Another compound: Cc1c(-c2noc(C(=O)NCCCN3CCCC(C)C3)n2)oc2ccccc12 (stereo not given)
condition met

Another compound: CCc1ccc2nc(Nc3ncc4c(n3)CC(c3ccc(OC)cc3)CC4=O)nc(C)c2c1 (stereo not given)
condition met

Another compound: `Cc1cc(=O)n(CC(=O)NCc2ccc3c(c2)OCO3)c(-c2ccc(F)cc2)n1`
condition met

Another compound: CCOc1ccc(N2C(=O)C3N=NN(Cc4nc(-c5ccccc5C)no4)C3C2=O)cc1 (stereo not given)
condition met

Another compound: COc1ccccc1CN1CCN(C(=O)C2CCc3nc(N4CCCCC4)ncc3C2)CC1 (stereo not given)
condition not met

Another compound: `CN1C(=O)c2ccccc2Oc2ccc(C(=O)NC3CCCC3)cc21`
condition met

Another compound: COc1ccc(-n2c(=O)n(C)c(=O)c3cc(C(=O)NC(C)c4ccccc4)cnc32)cc1 (stereo not given)
condition met

Another compound: `O=C(NCc1ccc2c(c1)OCO2)C(=O)NCC1(CO)CC1`
condition not met

Another compound: `CCc1nc2cc(-c3noc(Cc4ccc(OC)c(OC)c4)n3)ccc2o1`
condition met

Another compound: `CC(=O)N(C)CCc1noc(-c2ccc(C(=O)NCCC(C)C)cc2)n1`
condition met

Another compound: `Cc1ccc2nc3c(C(=O)O)cccn3c(=O)c2c1`
condition not met

Another compound: `COc1ccc(Cn2nc3ccc(S(=O)(=O)N4CCCCC4)cn3c2=O)cc1`
condition met

---

assay: gradient 5% acetonitrile 3 min, to 50% in 2 min, to 85% in 15 min, held 3 min, 100 µL/min; conditions: column: Zorbax Extend-C18 2.1 x 50 mm; eluents: water / acetonitrile, 0.1% formic acid
Below: a set of entries, each annotated with reported RP-LC retention time.
Answer format: numeric, s implied, no suffix.

// solved cases for RP-LC retention time follow
COc1cc(NC(=O)C2CCN(c3nccnc3Sc3ccccc3)CC2)cc(OC)c1OC
984
O=C(Cc1ccccc1)N1CCN(c2nc3cccnc3o2)CC1
686
NC(=O)C1CCN(C(=O)COCc2cc(-c3cccs3)on2)CC1
640

Look up RP-LC retention time: `CCCNC(=O)C1CCN(c2nc3ccsc3c(=O)n2-c2ccc(C)cc2)CC1`
756

Another compound: `CCOc1ccc2ncc(S(=O)(=O)c3ccc(C)cc3)c(N3CCN(C)CC3)c2c1`
667

Another compound: `COc1ccc(OC)c(-c2[nH]ncc2CN2CC(F)(F)C[C@H]2CN2CCCCC2)c1`
632

Another compound: `CCc1nnc2cc(N3CCN(C(=O)Nc4cccc(C)c4)CC3)cnn12`
593

Another compound: `NS(=O)(=O)c1ccc(NC(=O)c2cnc3ccccn3c2=O)cc1`
610

Another compound: `CN(C)C(=O)c1ccc2c(c1)nc(CN(C)C(=O)Nc1ccc(Br)cc1)n2C`
628

Another compound: `Cc1ccc(NC(=O)Cn2c(C)nc3c(sc4nc(-c5ccccc5)ccc43)c2=O)cc1F`
1110

Another compound: `CC(C)CN1CCn2cc(C(=O)N3CCC(C)CC3)nc2C1`
599

Another compound: `COCCC(=O)Nc1cnc(-c2ccc(C(F)(F)F)cc2)nc1`
895

---

experiment: gradient 5% acetonitrile 3 min, to 50% in 2 min, to 85% in 15 min, held 3 min, 100 µL/min; conditions: column: Zorbax Extend-C18 2.1 x 50 mm; eluents: water / acetonitrile, 0.1% formic acid
Classification field: t = RP-LC retention time at or over 700 s; f = RP-LC retention time under 700 s.

Worked cases, answers included:
O=C(Cn1nc(N2CCSCC2)c2ccccc2c1=O)Nc1cccc(Br)c1
t
COc1cc(NC(=O)CSc2nnnn2C)c2ncccc2c1
t

Turning now to a further record.
# bool: RP-LC retention time of `O=C(Nc1onc2c1CSC2)c1cccc(-n2cnnn2)c1` >= 700 s
f

---

experiment: gradient 5% acetonitrile 3 min, to 50% in 2 min, to 85% in 15 min, held 3 min, 100 µL/min; settings: column: Zorbax Extend-C18 2.1 x 50 mm; eluents: water / acetonitrile, 0.1% formic acid
QUANTITY MEASURED: RP-LC retention time (s)
Answer format: numeric, s implied, no suffix.

Cc1cc(Cl)ccc1OCC(=O)Nc1nc(-c2cccc3ccccc23)cs1
1310
Cn1nc(-c2nc(Cc3ccccc3)no2)c2c1CCN(C(=O)NC1CCCCC1)C2
933
Cc1ccccc1N1C(=O)CN(S(C)(=O)=O)CC1(C)C(=O)NCc1ccc(F)cc1 (stereo not drawn)
818
CC(C)NC(=O)C1CCCN(S(=O)(=O)c2cc(-c3noc(C4CCCC4)n3)cs2)C1 (stereo not drawn)
1050
O=C(Nc1nnc2n1CCS2)c1ccc2c(c1)OCO2
590

For the next question, use this compound.
Look up RP-LC retention time: COc1ccc(N2CCN(C(=O)C3CCCN(C(=O)c4[nH]c(C)cc4C)C3)CC2)cc1 (stereo not drawn)
763

---

experiment: gradient 5% acetonitrile 3 min, to 50% in 2 min, to 85% in 15 min, held 3 min, 100 µL/min; settings: column: Zorbax Extend-C18 2.1 x 50 mm; eluents: water / acetonitrile, 0.1% formic acid
Below: a set of entries, each annotated with reported RP-LC retention time.
Answer format: numeric, s implied, no suffix.

Look up RP-LC retention time: `COc1cccc(-c2nc(-c3cn(-c4cccc(Cl)c4)nn3)no2)c1`
1140

Another molecule: COC(=O)[C@@H]1Cc2c([nH]c3ccccc23)C(c2ccccc2C)N1 (some centres undefined)
685

Another molecule: `Cc1ccccc1Cn1nc(-c2nc(-c3ccc(F)cc3)no2)ccc1=O`
1130

Another molecule: COc1ccccc1CNC(=O)C1CCCN(c2ncnc3c2oc2ccccc23)C1 (centres undefined)
746

Another molecule: `CCn1nccc1C(=O)N1C[C@@H](CO)[C@H](NC(C)=O)C1`
514

Another molecule: `CCc1cccc(NC(=O)Nc2cnn(-c3ncc(N(C)C)cn3)c2)c1`
772

Another molecule: COCC1CN(C2CCC2)CC12CCN(C(=O)c1ccsc1)CC2 (centres undefined)
592

Another molecule: `CNC(=O)c1cccc(Nc2c(-c3ccc(Cl)cc3)nc3cnccn23)c1`
692

---

test: gradient 5% acetonitrile 3 min, to 50% in 2 min, to 85% in 15 min, held 3 min, 100 µL/min; settings: column: Zorbax Extend-C18 2.1 x 50 mm; eluents: water / acetonitrile, 0.1% formic acid
QUANTITY MEASURED: RP-LC retention time (s)
Answer format: numeric, s implied, no suffix.

Look up RP-LC retention time: `O=c1ccc(-c2ccc(S(=O)(=O)N3CCN(c4ccccn4)CC3)s2)n[nH]1`
595

Another compound: `COC(=O)c1ccc2c(=O)n(-c3cccc(C)c3)c(N3CCSC3)nc2c1`
1130

Another compound: COC(=O)c1ccc(NC(=O)N2CCC3(CC2)N(CC2CC2)C(=O)CS3=O)cc1 (centres undefined)
674

---

assay: gradient 5% acetonitrile 3 min, to 50% in 2 min, to 85% in 15 min, held 3 min, 100 µL/min; conditions: column: Zorbax Extend-C18 2.1 x 50 mm; eluents: water / acetonitrile, 0.1% formic acid
Below: a set of entries, each annotated with reported RP-LC retention time.
Answer format: numeric, s implied, no suffix.

Look up RP-LC retention time: `CC(C)CCNC(=O)C1CCN(C(=O)c2cc(-c3ccncc3)n[nH]2)CC1`
591

Another molecule: `O=C(c1csc(N2CCN(c3ccccc3)CC2)n1)N1CCC(N2CCCCC2)CC1`
668

Another molecule: `COc1ccc(NC(=O)Cn2c(=O)n(-c3ccc(C)cc3)c3ncccc32)c(C)c1`
833

Another molecule: `O=C(NCCc1csc(-c2cccc(F)c2)n1)Nc1c(F)cccc1F`
810

Another molecule: `CCCc1cc(N2CCN(C(=O)c3ccc4c(c3)OCO4)CC2)nc2nnc(CC)n12`
650

---

assay: gradient 5% acetonitrile 3 min, to 50% in 2 min, to 85% in 15 min, held 3 min, 100 µL/min; conditions: column: Zorbax Extend-C18 2.1 x 50 mm; eluents: water / acetonitrile, 0.1% formic acid
Below: a set of entries, each annotated with reported RP-LC retention time.
Answer format: numeric, s implied, no suffix.

CC1=C(C(=O)Nc2cc(Cl)ccc2C(=O)NC2CCC(C)CC2)SCCO1 (stereo not given)
1310

Look up RP-LC retention time: CCOC(=O)c1cc2n(n1)CC(C)(C(=O)NC1CCCC1)N(c1ccccc1F)C2=O (stereo not given)
876

Another compound: `O=C1COc2ccc(-c3csc(NC(=O)c4ccc(F)cc4)n3)cc2N1`
838

Another compound: `Cn1c(=O)c(F)c(Nc2ccc(I)cc2F)c2c(=O)n(C[C@@H](O)CO)cnc21`
756

Another compound: Cc1ccc(C)c(N2C(=O)CN(S(C)(=O)=O)CC2(C)C(=O)NCc2ccccc2)c1 (stereo not given)
809

Another compound: `CNC(=O)c1cncc(OC(C)C)c1`
610
